target: Sulfhydryl oxidase 1 (Homo sapiens) (UniProt O00391); experiment: inhibition of human sulfhydryl oxidase QSOX1 – biochemical, ROS-Glo H2O2 luminescence, HTS, primary screen (AID 1347418); conditions: recombinant QSOX1, ROS-Glo H2O2 luminescence, at 12.5 µM, hits give high values; active = any value above zero unless noted
Sequence (O00391 whole entry, looked up): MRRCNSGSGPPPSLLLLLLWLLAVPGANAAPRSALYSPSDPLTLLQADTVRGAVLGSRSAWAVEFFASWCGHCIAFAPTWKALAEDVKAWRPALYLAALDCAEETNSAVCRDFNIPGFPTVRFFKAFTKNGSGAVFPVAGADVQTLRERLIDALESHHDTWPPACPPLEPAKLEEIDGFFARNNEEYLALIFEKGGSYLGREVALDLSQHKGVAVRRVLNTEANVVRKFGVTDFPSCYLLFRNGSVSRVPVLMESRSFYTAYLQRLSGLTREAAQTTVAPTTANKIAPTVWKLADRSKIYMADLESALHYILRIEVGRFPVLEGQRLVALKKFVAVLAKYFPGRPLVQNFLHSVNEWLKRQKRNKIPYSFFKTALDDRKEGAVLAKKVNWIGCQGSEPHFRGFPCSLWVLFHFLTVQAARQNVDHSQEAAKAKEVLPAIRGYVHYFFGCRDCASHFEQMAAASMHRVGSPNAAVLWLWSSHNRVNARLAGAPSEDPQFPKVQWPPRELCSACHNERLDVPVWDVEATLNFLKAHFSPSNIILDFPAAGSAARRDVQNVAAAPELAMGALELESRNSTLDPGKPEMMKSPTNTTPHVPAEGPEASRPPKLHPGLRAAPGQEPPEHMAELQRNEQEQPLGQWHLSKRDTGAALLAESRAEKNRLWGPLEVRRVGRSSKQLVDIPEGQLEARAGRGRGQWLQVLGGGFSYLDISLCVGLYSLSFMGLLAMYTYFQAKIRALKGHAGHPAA
About 750 (58%) of roughly 1,300 compounds were called active. This is one part of the list.
Form entry, call: pick from Y for active, N for inactive

Recorded results for 4 compounds are shown here.
Hi team, can someone confirm the assay call for C#CCOC(=O)C1=CCCN(C)C1 ?
N

Hi team, can someone confirm the assay call for COC(=O)C1=CCCN(C)C1 ?
Y

Hi team, can someone confirm the assay call for CC12NC(Cc3ccccc31)c1ccccc12 (stereo unspecified) ?
Y

Hi team, can someone confirm the assay call for C[C@]12N[C@H](Cc3ccccc31)c1ccccc12 ?
Y

Others:
Hi team, can someone confirm the assay call for CCCCC/C=C\C/C=C\C/C=C\C/C=C\CCCC(=O)NCC(=O)O ?
Y

Hi team, can someone confirm the assay call for CNCC(O)c1ccc(O)cc1 (stereo unspecified) ?
Y

Hi team, can someone confirm the assay call for C[Se]C[C@H](N)C(=O)O ?
Y

Hi team, can someone confirm the assay call for CN1CC[C@@]2(C)c3cc(O)ccc3N(C)C12 (stereo partly specified) ?
Y

Hi team, can someone confirm the assay call for CN1CC[C@@]2(C)c3cc(OC(=O)Nc4ccccc4)ccc3N(C)[C@@H]12 ?
Y

Hi team, can someone confirm the assay call for N[C@@H](CCl)C(=O)O ?
N

Hi team, can someone confirm the assay call for CCN1C[C@@]2(COC)C3[C@@H](OC)C4[C@@H]1C3([C@@H]1C[C@@]3(O)[C@H](OC(=O)c5ccccc5)[C@@H]1[C@]4(OC(C)=O)[C@@H](O)[C@@H]3OC)[C@H](OC)C[C@H]2O ?
Y
